So I've got a bunch of compounds here, and I need their selectivity ratio values.
# assay name: Selectivity index, ratio of IC50 for cytotoxicity against human HK-2 cells to MIC for antibacterial activity against Escherichia coli ATCC BAA-2523
# Format: toxicity, cell-based
Bridge positions count the residues as written; N and C are the ends. Square brackets hold non-standard residues; d marks the D form. Peptide text beside a SMILES is read from it. * marks the point of attachment. Decanoyl(3R-OH) = CCCCCCC[C@@H](O)CC(=O)*; dDab = NCC[C@@H](N)C(=O)O; Dab = NCC[C@H](N)C(=O)O

>>> reported_value("CCCCCCCCCC(=O)N[C@H](CCN)C(=O)N[C@H]1CCNC(=O)[C@H]([C@@H](C)O)NC(=O)[C@H](CCN)NC(=O)[C@H](CCN)NC(=O)[C@H](CC(C)C)NC(=O)[C@H](CC(C)C)NC(=O)[C@H](CCN)NC1=O")
"< 0.9"

// input: 5 compounds below; output: selectivity ratio for each
1. CC[C@H](C)CCCCC(=O)N[C@H](CCN)C(=O)N[C@H]1CCNC(=O)[C@H](CC(C)C)NC(=O)[C@H](CCN)NC(=O)[C@H](CCN)NC(=O)[C@H](CC(C)C)NC(=O)[C@@H](CC(C)C)NC(=O)[C@H](CCN)NC1=O
2. CCCCCCCCCC(=O)N[C@H](CCN)C(=O)N[C@H]1CCNC(=O)[C@H](CO)NC(=O)[C@H](CCN)NC(=O)[C@H](CCN)NC(=O)[C@H](Cc2ccccc2)NC(=O)[C@@H](CC(C)C)NC(=O)[C@H](CCN)NC1=O
3. CCCCCCCCCC(=O)N[C@H](CCN)C(=O)N[C@H]1CCNC(=O)[C@H](Cc2ccccc2)NC(=O)[C@H](CCN)NC(=O)[C@H](CCN)NC(=O)[C@H](Cc2ccccc2)NC(=O)[C@@H](CC(C)C)NC(=O)[C@H](CCN)NC1=O
4. CCCCCCC[C@@H](O)CC(=O)N[C@H](CCN)C(=O)N[C@H]1CCNC(=O)[C@H](CC(C)C)NC(=O)[C@H](CCN)NC(=O)[C@H](CCN)NC(=O)[C@H](CC(C)C)NC(=O)[C@@H](Cc2ccccc2)NC(=O)[C@H](CCN)NC1=O ({Decanoyl(3R-OH)}-[dDab][Dab][Dab][dF]L[Dab][Dab]L; lactam 2-C)
5. CCCCCCCCCC(=O)N[C@H](CCN)C(=O)N[C@H]1CCNC(=O)[C@H]([C@@H](C)O)NC(=O)[C@H](CCN)NC(=O)[C@H](CCN)NC(=O)[C@@H](CC(C)C)NC(=O)[C@@H](CC(C)C)NC(=O)[C@H](CCN)NC1=O

OUTPUT:
[10.9, 9.1, 5.4, 1.8, 1.4]

* * *

# System: Pseudomonas aeruginosa
# assay name: Antibacterial activity against carbapenem resistant Pseudomonas aeruginosa clinical isolate 19-3 assessed as inhibition of bacterial growth incubated for 18 to 24 hrs by broth microdilution method
# Assay type: functional
# condition info: time 18-24 hrs
Bridge positions count the residues as written; N and C are the ends. Square brackets hold non-standard residues; d marks the D form. Peptide text beside a SMILES is read from it. * marks the point of attachment. Decanoyl(3R-OH) = CCCCCCC[C@@H](O)CC(=O)*; dDab = NCC[C@@H](N)C(=O)O; Dab = NCC[C@H](N)C(=O)O
So I've got a bunch of compounds here, and I need their MIC values.
Answers are plain numbers, in µg/mL.

Look over these answered cases.
>>> reported_value("CCCCCCCCCC(=O)N[C@H](CCN)C(=O)N[C@H]1CCNC(=O)[C@H]([C@@H](C)O)NC(=O)[C@H](CCN)NC(=O)[C@H](CCN)NC(=O)[C@H](CC(C)C)NC(=O)[C@@H](Cc2ccc(C(C)(C)C)cc2)NC(=O)[C@H](CCN)NC1=O")
2
>>> reported_value("CCCCCCC[C@@H](O)CC(=O)N[C@H](CCN)C(=O)N[C@H]1CCNC(=O)[C@H]([C@@H](C)O)NC(=O)[C@H](CCN)NC(=O)[C@H](CCN)NC(=O)[C@H]([C@@H](C)O)NC(=O)[C@@H](Cc2ccccc2)NC(=O)[C@H](CCN)NC1=O")
0.5
>>> reported_value("CCCCCCC[C@@H](O)CC(=O)N[C@H](CCN)C(=O)N[C@H]1CCNC(=O)[C@H]([C@@H](C)O)NC(=O)[C@H](CCN)NC(=O)[C@H](CCN)NC(=O)[C@H]([C@@H](C)O)NC(=O)[C@@H](CC(C)C)NC(=O)[C@H](CCN)NC1=O")
0.5
>>> reported_value("CCCCCCCCCC(=O)N[C@H](CCN)C(=O)N[C@H]1CCNC(=O)[C@H](Cc2ccccc2)NC(=O)[C@H](CCN)NC(=O)[C@H](CCN)NC(=O)[C@H](Cc2ccccc2)NC(=O)[C@@H](CC(C)C)NC(=O)[C@H](CCN)NC1=O")
4
>>> reported_value("CCCCCCCCCC(=O)N[C@H](CCN)C(=O)N[C@H]1CCCNC(=O)[C@H]([C@@H](C)O)NC(=O)[C@H](CCN)NC(=O)[C@H](CCN)NC(=O)[C@H](CC(C)C)NC(=O)[C@@H](CC(C)C)NC(=O)[C@H](CCN)NC1=O")
2

In plain terms, CCCCCCC[C@@H](O)CC(=O)N[C@H](CCN)C(=O)N[C@H]1CCNC(=O)[C@H]([C@@H](C)O)NC(=O)[C@H](CCN)NC(=O)[C@H](CCN)NC(=O)[C@H](CC(C)C)NC(=O)[C@@H](Cc2ccccc2)NC(=O)[C@H](CCN)NC1=O ({Decanoyl(3R-OH)}-[dDab][Dab][Dab][dF]L[Dab][Dab]T; lactam 2-C) has a documented MIC of 1

* * *

# System: Pseudomonas aeruginosa
# assay name: Antibacterial activity against carbapenem resistant Pseudomonas aeruginosa clinical isolate 17-1 assessed as inhibition of bacterial growth incubated for 18 to 24 hrs by broth microdilution method
# Assay type: functional
# condition info: time 18-24 hrs
Bridge positions count the residues as written; N and C are the ends. Square brackets hold non-standard residues; d marks the D form. Peptide text beside a SMILES is read from it. * marks the point of attachment. Decanoyl(3R-OH) = CCCCCCC[C@@H](O)CC(=O)*; X1 = CC[C@H](C)CCCCC(=O)*; dDab = NCC[C@@H](N)C(=O)O; Dab = NCC[C@H](N)C(=O)O
measured quantity: MIC (µg/mL)
Give bare numbers, in µg/mL.

>>> reported_value("CCCCCCCCCC(=O)N[C@H](CCN)C(=O)N[C@H]1CCNC(=O)[C@H]([C@@H](C)O)NC(=O)[C@H](CCN)NC(=O)[C@H](CCN)NC(=O)[C@H](CC(C)C)NC(=O)[C@@H](Cc2cccc(Cl)c2)NC(=O)[C@H](CCN)NC1=O")
32
>>> reported_value("CCCCCCC[C@@H](O)CC(=O)N[C@H](CCN)C(=O)N[C@H]1CCNC(=O)[C@H](CC(C)C)NC(=O)[C@H](CCN)NC(=O)[C@H](CCN)NC(=O)[C@H](CC(C)C)NC(=O)[C@@H](Cc2ccccc2)NC(=O)[C@H](CCN)NC1=O ({Decanoyl(3R-OH)}-[dDab][Dab][Dab][dF]L[Dab][Dab]L; lactam 2-C)")
2
>>> reported_value("CC[C@H](C)CCCCC(=O)N[C@@H](CCN)C(=O)N[C@H](C(=O)N[C@@H](CCN)C(=O)N[C@H]1CCNC(=O)[C@H]([C@@H](C)O)NC(=O)[C@H](CCN)NC(=O)[C@H](CCN)NC(=O)[C@H](CC(C)C)NC(=O)[C@@H](Cc2ccccc2)NC(=O)[C@H](CCN)NC1=O)[C@@H](C)O (X1-[Dab]T[Dab][Dab][Dab][dF]L[Dab][Dab]T; lactam 4-C)")
0.25
>>> reported_value("CCCCCCCCCC(=O)N[C@H](CCN)C(=O)N[C@H]1CCCNC(=O)[C@H]([C@@H](C)O)NC(=O)[C@H](CCN)NC(=O)[C@H](CCN)NC(=O)[C@H](CC(C)C)NC(=O)[C@@H](CC(C)C)NC(=O)[C@H](CCN)NC1=O")
4
>>> reported_value("CC(C)C[C@@H]1NC(=O)[C@@H](CC(C)C)NC(=O)[C@H](CCN)NC(=O)[C@@H](NC(=O)[C@@H](CCN)NC(=O)CCCCCc2ccccc2)CCNC(=O)[C@H]([C@@H](C)O)NC(=O)[C@H](CCN)NC(=O)[C@H](CCN)NC1=O")
4

// input: 4 compounds below; output: MIC for each
1. CCCCCCC[C@@H](O)CC(=O)N[C@H](CCN)C(=O)N[C@H]1CCNC(=O)[C@H]([C@@H](C)O)NC(=O)[C@H](CCN)NC(=O)[C@H](CCN)NC(=O)[C@H](CC(C)C)NC(=O)[C@@H](CC(C)C)NC(=O)[C@H](CCN)NC1=O
2. CCCCCCC[C@@H](O)CC(=O)N[C@H](CCN)C(=O)N[C@H]1CCNC(=O)[C@H](CC(C)C)NC(=O)[C@H](CCN)NC(=O)[C@H](CCN)NC(=O)[C@H](Cc2ccccc2)NC(=O)[C@@H](CC(C)C)NC(=O)[C@H](CCN)NC1=O
3. CCCCCCC[C@@H](O)CC(=O)N[C@@H](CCN)C(=O)N[C@H](CCN)C(=O)N[C@H]1CCNC(=O)[C@H](CC(C)C)NC(=O)[C@H](CCN)NC(=O)[C@H](CCN)NC(=O)[C@H](Cc2ccccc2)NC(=O)[C@@H](CC(C)C)NC(=O)[C@H](CCN)NC1=O
4. CCCCCCCCCC(=O)N[C@H](CCN)C(=O)N[C@H]1CCNC(=O)[C@H](CC(C)C)NC(=O)[C@H](CCN)NC(=O)[C@H](CCN)NC(=O)[C@H](Cc2ccccc2)NC(=O)[C@@H](Cc2ccccc2)NC(=O)[C@H](CCN)NC1=O

OUTPUT:
0.5
2
2
8

Data origin, for the record: ChEMBL document CHEMBL5380795
